A collection of variants and their measured self-cleavage
B1: HDV Ribozyme (parent)
chain: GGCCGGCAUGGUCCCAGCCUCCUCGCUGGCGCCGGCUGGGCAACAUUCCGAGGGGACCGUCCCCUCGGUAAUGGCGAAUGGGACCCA

Variants of: B1
Protocol description: self-cleavage, relative activity (ratio to wild type); higher = more cleavage; co-transcriptional
Write the value as a bare number.

Example entries begin here.
G25U A45C : 0.0831
C14G G54U : 0.776
G35C G40C : 0.185
G35U G80A : 0.101
G29U C57G : 0.198
G11A C48U : 0.326

// lookup self-cleavage for U20C C44G
0.0692

// lookup self-cleavage for U72A G80C
0.219

// lookup self-cleavage for C48G C84G
0.646

// lookup self-cleavage for C57A G59C
0.923

// lookup self-cleavage for G68C G82U
0.352

Hey, just so you know, these numbers are from the RNAGym collection of RNA variant scans (doi:10.7554/elife.80360).
